The values you see were collected from PubChem BioAssay (NCI).

- Test system: SK-MEL-2 melanoma
- Assay procedure: NCI tumour cell line growth inhibition, 48 h
The entries below come with measured TGI values attached.

* O=NN1C(c2ccccc2)CNC(=O)CC1c1ccccc1 (configuration not stated) | > 80 µM
* CCOC(=O)[C@@H](C)C[C@H](Cc1ccccc1)NC(=O)c1csc([C@@H](C[C@H](C(C)C)N(C)C(=O)[C@@H](NC(=O)[C@H]2CCCCN2C)C(C)(C)CC)OC(C)=O)n1 | > 16.7 µM
* c1ccc(-c2oc(-c3ccccc3)c(CN3CCCCC3)c2CN2CCCCC2)cc1 | 15.7 µM

// map COC1C2C[C@@H](O)CCC2C(C(=O)OCCl)C[C@H]1O (some centres not stated) to recorded TGI (system: SK-MEL-2 melanoma)
> 100 µM

// map O=C1[C@@H]2C(c3ccc(Br)cc3)=NO[C@@H]2C(=O)N1c1ccc(Cc2ccc(N3C(=O)[C@H]4C(c5ccc(Br)cc5)=NO[C@H]4C3=O)cc2)cc1 to recorded TGI (system: SK-MEL-2 melanoma)
> 40 µM

// map COc1cc(OC2OC(CO)C(O)C(O)C2O)c2c(O)c3c(=O)cc(C)oc3cc2c1 (configuration not stated) to recorded TGI (system: SK-MEL-2 melanoma)
> 100 µM

// map Nc1nnc2c(-c3ccccc3)[nH]nc2n1 to recorded TGI (system: SK-MEL-2 melanoma)
> 100 µM

// map C[C@H]1CC[P+](Cc2ccccc2)(c2ccccc2)C1 (some centres not stated) to recorded TGI (system: SK-MEL-2 melanoma)
> 100 µM

// map CC(C)(CN1C(=O)C(Cl)=C(Cl)C1=O)CN1C(=O)C(Cl)=C(Cl)C1=O to recorded TGI (system: SK-MEL-2 melanoma)
41 µM

// map CC(C)(C)OC(=O)NC1CCCC1C(=O)C1=CCCC1 (configuration not stated) to recorded TGI (system: SK-MEL-2 melanoma)
> 100 µM

// map O=C(Cc1ccccc1)NN1C(=O)C(Cl)C1c1ccccc1Cl (configuration not stated) to recorded TGI (system: SK-MEL-2 melanoma)
> 100 µM

// map CN=c1ss/c(=N\C(=S)N(C)C)n1C to recorded TGI (system: SK-MEL-2 melanoma)
> 100 µM

----------
- System: HCC-2998 colon
- Assay procedure: NCI tumour cell line growth inhibition, 48 h
Where a SMILES comes first, the peptide text is derived from it. The star is where a group is joined. Trt = c1ccc(C(c2ccccc2)(c2ccccc2)*)cc1; Cbz = O=C(OCc1ccccc1)*
Quantity measured: TGI

# example entries with known answers
• Cc1c(C)c2c(c(N)c1C#N)C(=O)N(O)C2=O = > 100 µM
• O=C1N=C2SC=C(NC(=S)Nc3ccccc3)N2NC12c1ccccc1-c1ccccc12 = > 10 µM
• O=[N+]([O-])c1ccc(SN=S=NSc2cccc(SN=S=NSc3ccc([N+](=O)[O-])cc3)c2)cc1 = > 100 µM
• CC(C)[C@@H]1CC[C@@H](C)C[C@H]1OC(=O)c1c2n(c3ccccc13)C[C@H]1OC(C)(C)O[C@@H]21 = > 100 µM
• NS(=O)(=O)c1ccc(NC(=O)N/N=C/c2ccccc2O)cc1 = > 100 µM

What TGI value was documented for this compound, COC(=O)C(CO)NC(=O)C(CSC(c1ccccc1)(c1ccccc1)c1ccccc1)NC(=O)OCc1ccccc1 (centres undefined) (Cbz-Cys(Trt)-Ser-OMe; configuration not given here) ?
29 µM

What TGI value was documented for this compound, CC1(C)C2CCC3CC(CCC#N)CCC3C21C#N (centres undefined) ?
> 100 µM

What TGI value was documented for this compound, CCCCC1=CSC(c2ccccc2)=C(c2ccccc2)S1 ?
> 100 µM

What TGI value was documented for this compound, C[C@@]1([C@H](OC(=O)c2ccccc2)C(N)=O)CO1 ?
40.3 µM

----------
The entries below come with measured TGI values attached.
- Test system: SF-295 CNS
- Assay procedure: NCI tumour cell line growth inhibition, 48 h

# example entries with known answers
• CCOC1OC(CO)C(O)CC1n1ccc(=O)[nH]c1=O (stereo not given) = > 100 µM
• O=C(Nc1ccc(Oc2ccc3nc(NC(=O)c4ccco4)[nH]c3c2)cc1)Nc1cc(C(F)(F)F)ccc1F = > 12.2 µM

Lab note: next molecule to report on.
What TGI value was documented for this molecule, CCOC(=O)C(NC(=O)OCc1ccccc1)C(=O)O (stereo not given) ?
> 100 µM

----------
- System: MOLT-4 leukemia
- Assay procedure: NCI tumour cell line growth inhibition, 48 h; in the data active = GI50 below about 0.43 µM; inactive = the rest
Valid outcomes are listed here; reply with one: active, inactive

Study these solved cases before continuing.
* CO[C@H]1C[C@@H]2CC[C@@H](C)[C@@](O)(O2)C(=O)C(=O)N2CCCC[C@H]2C(=O)O[C@H]([C@H](C)C[C@@H]2CC[C@@H](OC(=O)C(C)(CO)CO)[C@H](OC)C2)CC(=O)[C@H](C)/C=C(\C)[C@@H](O)[C@@H](OC)C(=O)[C@H](C)C[C@H](C)\C=C/C=C/C=C/1C | active
* COc1cc([N+](=O)[O-])c(OC)cc1-c1nc2sc(C)c(C)n2c1/C(N)=N/C(=N)N | inactive
* COc1ccc2c(c1)OC(N)=C(C#N)C2c1cc(OC)c(OC)c(OC)c1 (stereo not drawn) | active
* CCN(CC)c1ccc(/C=C/C(=O)c2ccc(Nc3nc(Nc4ccccc4)nc(Nc4ccccc4)n3)cc2)cc1 | inactive

Identify the outcome logged in this assay for the molecule shown: O=C1/C(=C/c2ccc(Cl)c(Cl)c2)CN(C(=O)C(Cl)Cl)C/C1=C\c1ccc(Cl)c(Cl)c1
active

Identify the outcome logged in this assay for the molecule shown: COc1cc2cc(Oc3ccc(NC(=O)Nc4cc(C(F)(F)F)cc(C(F)(F)F)c4)cc3)c(C)nc2cc1OCCN1CCOCC1
inactive

Identify the outcome logged in this assay for the molecule shown: COc1cc[c]([Sn]([c]2ccc(OC)cc2)([c]2ccc(OC)cc2)[c]2ccc(OC)cc2)cc1
inactive

Identify the outcome logged in this assay for the molecule shown: COc1cc2c(c(OC)c1OC)-c1ccc(NN(C(=O)c3ccccc3)C(=O)c3ccccc3)c(=O)cc1[C@@H](NC(C)=O)CC2 (tested in a mixture with another compound)
inactive

----------
- Test system: U251 CNS
Valid outcomes are listed here; reply with one: True (active), False (inactive)

Study these solved cases before continuing.
* COc1cc(/C=C2\C(=O)N(Cc3ccc(Cl)cc3)c3ccccc32)cc(OC)c1OC | False
* COc1cc[c]([Sn]([c]2ccc(OC)cc2)([c]2ccc(OC)cc2)[c]2ccc(OC)cc2)cc1 | False
* COc1cnc2c(c1)C(=O)c1c-2n(CCCNC2=NCCS2)c(=O)c2cc(F)ccc12 | True
* O=C1CC(c2c[nH]c3ccc(F)cc23)C(=O)N1 (stereo unspecified) | False
* O=C1NC(=NCc2ccccc2Cl)S/C1=C\c1ccc2ncccc2c1 | False

Could you now look at the following compound, please?
Identify the outcome logged in this assay for the compound shown: CC1CC2C3CCC4=CC(=O)C=CC4(C)C3(F)C(O)CC2(C)C1(O)C(=O)COP(=O)(O)O (stereo unspecified)
False

----------
- Tested on: NCI-H23 lung
- Assay procedure: NCI tumour cell line growth inhibition, 48 h
Quantity measured: TGI

# example entries with known answers
- N#C/C(=C\c1ccncc1)c1csc2ccccc12: > 79.8 µM
- Clc1ccc(Cl)c(N=Nc2cc3c4c(c2)CCN4CCC3)c1: > 10 µM

What TGI value was documented for this compound, O=S(O)CCCCCSSc1ccccc1 ?
> 100 µM

What TGI value was documented for this compound, CC(C)(C)c1cc(CCC(=O)Nc2ccc(Cl)cc2)[nH]c(=S)n1 ?
> 100 µM

What TGI value was documented for this compound, O=C/C(=C1/C=Cc2cc([N+](=O)[O-])ccc2S1)c1ccccc1 ?
> 100 µM

What TGI value was documented for this compound, O=C(CNc1ccccn1)Nn1cnc2ccc(S(=O)(=O)Nc3ccccn3)cc2c1=O ?
> 100 µM

What TGI value was documented for this compound, Cc1c(C)c2c(c(N)c1C#N)C(=O)N(O)C2=O ?
> 100 µM

What TGI value was documented for this compound, Cc1ccc(CNc2ccc(Br)cc2)cc1 ?
> 100 µM

What TGI value was documented for this compound, C[N+](C)(CCCCCC[N+](C)(C)CCCN1C(=O)c2cccc3cccc(c23)C1=O)CCCN1C(=O)c2cccc3cccc(c23)C1=O ?
> 100 µM

What TGI value was documented for this compound, CC(=O)C1CCN(c2ccccc2)C1 (stereo not drawn) ?
> 100 µM

----------
- Tested on: RPMI-8226 leukemia
- Assay procedure: NCI tumour cell line growth inhibition, 48 h
The entries below come with measured TGI values attached.

# example entries with known answers
* COc1ccc(C(O)/C(=N/N)c2nc3ccc(Cl)cc3[nH]c2=O)cc1 (centres undefined) | > 100 µM
* C[N+](C)(CCCCCC[N+](C)(C)CCCN1C(=O)c2cccc3cccc(c23)C1=O)CCCN1C(=O)c2cccc3cccc(c23)C1=O | > 100 µM
* Cc1cccc(C2ON=C(c3ccccc3)N2C23CC4CC(CC(C4)C2)C3)c1 (centres undefined) | > 10 µM
* CCN(CC)c1ccc(/C=C/C(=O)c2ccc(Nc3nc(Nc4ccccc4)nc(Nc4ccccc4)n3)cc2)cc1 | > 100 µM
* O=C1OC(c2ccccc2)=NC1c1ccccc1 (centres undefined) | > 100 µM

What TGI value was documented for this compound, Clc1ccc(Nc2nnc(CNc3ccc(-c4nnc(Nc5ccc(Cl)cc5)s4)cc3)s2)cc1 ?
> 100 µM

What TGI value was documented for this compound, O=C(O)c1nc2ccccc2nc1Nc1ccc(Cl)c(Cl)c1 ?
> 100 µM

What TGI value was documented for this compound, CCOCC1(COCC)CCC(c2[nH]ncc2CN(C)CCNC)CC1 ?
> 100 µM

What TGI value was documented for this compound, CCN(CC)CCCNc1c2c(Cl)cc(Cl)cc2nc2nc(=O)[nH]c(C)c12 ?
> 10 µM
